- experimental_system: Tyrosine-protein kinase FRK (Homo sapiens) (UniProt P42685)
- Sequence (P42685 whole entry): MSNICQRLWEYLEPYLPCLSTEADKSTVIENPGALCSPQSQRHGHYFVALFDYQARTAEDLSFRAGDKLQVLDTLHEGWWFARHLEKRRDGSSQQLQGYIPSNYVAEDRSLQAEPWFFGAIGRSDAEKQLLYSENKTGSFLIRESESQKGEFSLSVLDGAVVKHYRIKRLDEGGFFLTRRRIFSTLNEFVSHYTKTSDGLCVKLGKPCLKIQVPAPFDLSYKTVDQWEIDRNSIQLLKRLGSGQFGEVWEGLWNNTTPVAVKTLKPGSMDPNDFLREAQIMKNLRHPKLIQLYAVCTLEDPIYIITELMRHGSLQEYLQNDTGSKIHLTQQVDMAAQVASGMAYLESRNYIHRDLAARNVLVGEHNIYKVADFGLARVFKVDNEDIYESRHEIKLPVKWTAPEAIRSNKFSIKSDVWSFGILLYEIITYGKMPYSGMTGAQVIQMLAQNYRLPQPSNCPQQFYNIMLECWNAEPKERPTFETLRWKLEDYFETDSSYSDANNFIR
- experimental_parameters: at 10 µM
endpoint_name: residual activity (%)

INSERT INTO results (chemical_string, experimental_system, result) VALUES
  ('Oc1ccc(Nc2nc(-c3ccc(Cl)cc3)cs2)cc1', 'Tyrosine-protein kinase FRK (Homo sapiens) (UniProt P42685)', 118),
  ('COc1cc2ncnc(Nc3ccc(NC(=O)c4ccccc4)cc3)c2cc1OC', 'Tyrosine-protein kinase FRK (Homo sapiens) (UniProt P42685)', 76),
  ('CO[C@H]1C[C@@H]2CC[C@@H](C)[C@@](O)(O2)C(=O)C(=O)N2CCCC[C@H]2C(=O)O[C@H]([C@H](C)C[C@@H]2CC[C@@H](O)[C@H](OC)C2)CC(=O)[C@H](C)/C=C(\C)[C@@H](O)[C@@H](OC)C(=O)[C@H](C)C[C@H](C)/C=C/C=C/C=C/1C', 'Tyrosine-protein kinase FRK (Homo sapiens) (UniProt P42685)', 112);

====

- experimental_system: Focal adhesion kinase 1 (Homo sapiens) (UniProt Q05397)
- Sequence (Q05397 2-1052 limits assumed): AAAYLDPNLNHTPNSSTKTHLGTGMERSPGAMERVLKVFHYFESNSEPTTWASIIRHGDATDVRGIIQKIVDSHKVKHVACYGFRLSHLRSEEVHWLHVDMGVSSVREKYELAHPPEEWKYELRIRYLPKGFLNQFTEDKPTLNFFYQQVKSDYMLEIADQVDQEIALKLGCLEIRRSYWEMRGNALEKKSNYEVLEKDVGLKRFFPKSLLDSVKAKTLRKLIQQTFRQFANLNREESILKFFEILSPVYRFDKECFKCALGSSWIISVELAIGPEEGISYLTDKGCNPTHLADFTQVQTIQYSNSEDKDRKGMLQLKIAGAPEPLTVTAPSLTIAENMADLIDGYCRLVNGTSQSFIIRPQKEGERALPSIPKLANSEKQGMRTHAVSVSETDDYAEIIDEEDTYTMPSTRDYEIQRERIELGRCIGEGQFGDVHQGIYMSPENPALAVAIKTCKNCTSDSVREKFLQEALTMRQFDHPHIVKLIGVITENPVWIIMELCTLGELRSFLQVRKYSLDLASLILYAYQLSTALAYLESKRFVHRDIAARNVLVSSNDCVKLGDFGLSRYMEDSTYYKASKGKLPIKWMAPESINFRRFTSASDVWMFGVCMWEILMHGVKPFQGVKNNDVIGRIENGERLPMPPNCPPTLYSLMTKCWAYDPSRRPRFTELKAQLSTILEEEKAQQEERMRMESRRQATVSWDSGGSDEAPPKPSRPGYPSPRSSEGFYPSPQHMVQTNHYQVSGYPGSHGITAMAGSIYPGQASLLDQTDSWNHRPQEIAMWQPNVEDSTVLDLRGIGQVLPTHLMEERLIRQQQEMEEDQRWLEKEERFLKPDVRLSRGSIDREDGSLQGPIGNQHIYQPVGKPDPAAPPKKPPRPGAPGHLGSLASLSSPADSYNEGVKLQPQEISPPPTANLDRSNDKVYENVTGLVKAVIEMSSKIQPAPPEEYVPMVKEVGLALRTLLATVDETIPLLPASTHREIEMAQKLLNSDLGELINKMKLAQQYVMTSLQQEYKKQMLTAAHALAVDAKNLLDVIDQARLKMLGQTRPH
- experimental_parameters: at 10 µM
Recorded residual activity determines the label; the label ranges are lower level: < 40%; middle level: ≥ 40% and < 80%; upper level: ≥ 80%

INSERT INTO results (compound, label_class) VALUES
  ('Cn1cnc2cc3c(Nc4cccc(Br)c4)ncnc3cc21', 'upper level'),
  ('NC(=O)c1ccc2[nH]c(-c3ccc(Oc4ccc(Cl)cc4)cc3)nc2c1', 'middle level'),
  ('CN(C)CCCn1cc(C2=C(c3c[nH]c4ccccc34)C(=O)NC2=O)c2ccccc21', 'lower level'),
  ('O=C1Nc2ccccc2/C1=C1/Nc2ccccc2/C1=N\OCCC(O)CO (stereo unspecified)', 'lower level'),
  ('O=C(Nc1cccc(Nc2nccc(Nc3cccc(C(F)(F)F)c3)n2)c1)C1CC1', 'lower level'),
  ('O=C1Nc2cc(Br)ccc2/C1=C1/Nc2ccccc2/C1=N\O', 'lower level'),
  ('CC(C)n1cnc2/c(=N/c3cccc(Cl)c3)nc(NCCO)[nH]c21', 'lower level'),
  ('CC(=O)c1ccc(N2CCOCC2)cc1O', 'upper level'),
  ('O=C1c2ccccc2-[n+]2ccc3c([nH]c4ccccc43)c21', 'upper level'),
  ('Cc1ccc(S(=O)(=O)/C=C/C#N)cc1', 'upper level'),
  ('COc1cc2ncnc(Nc3ccc(O)c(Br)c3)c2cc1OC', 'middle level'),
  ('CN(C)c1ccc(/C=C2\C(=O)Nc3ccccc32)cc1', 'middle level'),
  ('CO[C@H]1C[C@@H]2CC[C@@H](C)[C@@](O)(O2)C(=O)C(=O)N2CCCC[C@H]2C(=O)O[C@H]([C@H](C)C[C@@H]2CC[C@@H](O)[C@H](OC)C2)CC(=O)[C@H](C)/C=C(\C)[C@@H](O)[C@@H](OC)C(=O)[C@H](C)C[C@H](C)/C=C/C=C/C=C/1C', 'upper level'),
  ('COc1ccc(CNc2nc(N(CCO)CCO)nc3c2ncn3C(C)C)cc1', 'middle level'),
  ('Nc1cccc(-c2cc3c(Oc4cccc(O)c4)ncnc3[nH]2)c1', 'middle level'),
  ('O=C1Nc2ccc(Br)cc2/C1=C\c1cc2c([nH]1)CCCC2', 'middle level'),
  ('O=Nc1c(-c2c(O)[nH]c3ccccc23)[nH]c2ccccc12', 'lower level');
